Catalogue of molecules with associated EC50
test: Agonist activity at VDR in human HL60 cells assessed as induction of cell differentiation after 96 hrs by NBT reduction assay
parameter: EC50 (nM)

>>> readout_number("CCC(CC)(c1ccc(OCC(O)C(C)(C)C)c(C)c1)c1ccc(C(=O)NCCCO)n1C (stereo not drawn)")
150
>>> readout_number("CCC(CC)(c1ccc(OCC(=O)C(C)(C)C)c(C)c1)c1ccc(C(=O)N[C@@H](C)C(=O)O)n1C")
2630
>>> readout_number("CCC(CC)(c1ccc(OCC(O)C(C)(C)C)c(C)c1)c1ccc(C(=O)NCCC(=O)O)n1C (stereo not drawn)")
1600
>>> readout_number("CCn1c(C(=O)NCC(=O)OC)ccc1C(CC)(CC)c1ccc(OCC(=O)C(C)(C)C)c(C)c1")
1830
>>> readout_number("CCC(CC)(c1ccc(OCC(O)C(C)(C)C)c(C)c1)c1ccc(C(=O)N[C@@H](C)CO)n1C (stereo partly drawn)")
570
>>> readout_number("CCC(CC)(c1ccc(OCC(=O)C(C)(C)C)c(C)c1)c1ccc(C(=O)N[C@@H](CC(=O)O)C(=O)O)n1C")
410
>>> readout_number("CCC(CC)(c1ccc(OCC(O)C(C)(C)C)c(C)c1)c1ccc(C(=O)NCC(=O)O)n1C (stereo not drawn)")
4950
>>> readout_number("CCC(CC)(c1ccc(OCC(=O)C(C)(C)C)c(C)c1)c1ccc(C(=O)NCCC(=O)OC)n1C")
790

###

Catalogue of molecules with associated EC50
assay: Agonist activity at VDR in human HL60 cells assessed as induction of cell differentiation after 96 hrs by NBT reduction assay
parameter: EC50

>>> result("CCn1c(C(=O)NCCO)ccc1C(CC)(CC)c1ccc(OCC(O)C(C)(C)C)c(C)c1 (configuration not stated)")
"5.64 µM"
>>> result("CCn1c(C(=O)N[C@@H](C)C(=O)O)ccc1C(CC)(CC)c1ccc(OCC(O)C(C)(C)C)c(C)c1 (some centres not stated)")
"0.0041 µM"
>>> result("CCC(CC)(c1ccc(OCC(O)C(C)(C)C)c(C)c1)c1ccc(C(=O)N[C@H](CO)CCO)n1C (some centres not stated)")
"0.2 µM"
>>> result("C=C1/C(=C\\C=C2/CCC[C@]3(C)[C@@H]([C@H](C)CC[C@@H](O)C(C)C)CC[C@@H]23)C[C@@H](O)C[C@@H]1O")
"0.0071 µM"
>>> result("CCn1c(C(=O)N[C@@H](C)CO)ccc1C(CC)(CC)c1ccc(OCC(O)C(C)(C)C)c(C)c1 (some centres not stated)")
"0.0011 µM"
>>> result("CCC(CC)(c1ccc(OCC(=O)C(C)(C)C)c(C)c1)c1ccc(C(=O)NCC(=O)OC)n1C")
"0.023 µM"
>>> result("CCn1c(C(=O)N[C@H](CO)CCO)ccc1C(CC)(CC)c1ccc(OCC(O)C(C)(C)C)c(C)c1 (some centres not stated)")
"0.11 µM"
